- method_description: chemical genetic growth profiling, strain panel (AID 1159580);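 further: tested at 20 µM; growth read once vehicle control cultures reached saturation at 30 °C; 1 = growth at the plate median or of vehicle wells; lower values mean less growth of the strain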
- study_conditions: S. cerevisiae deletion strains, growth OD, locus YOR061W, strain CKA2, hits give low values
Among all 5,500 compounds or so, about 2,000 (36%) were called active. Not shown: some 18% with an inconclusive outcome. The list shows a part of the results.
result_type: normalized growth
The reply should be a number, written without any unit.

These recorded examples may help you get a feel for the data.
O=C(NCC(c1ccccc1)c1c[nH]c2ccccc12)c1ccc(C(F)(F)F)cc1 (stereo unspecified)	0.995
Cc1oc(C(C)(C)C)cc1-c1cc(N)n(-c2ccc(I)cc2)n1	0.944
Nc1c2ccccc2nc2ccccc12 (tested in a mixture with another compound)	0.744
COC(=O)Nc1nc2ccc(Sc3ccccc3)cc2[nH]1	0.994
O=C(Nc1ccccc1Sc1ccc([N+](=O)[O-])cc1[N+](=O)[O-])C(Cl)(Cl)Cl	0.98

[Q] Return normalized growth for the following compound: CC(=O)O[C@H]1CC[C@@]2(C)C(CC[C@]3(C)C2CC=C2C4CC(C)(C)CC[C@]4(C)CC[C@]23C)C1(C)C (stereo partly specified)
[A] 1.02

[Q] Return normalized growth for the following compound: C[C@@H]1CC[C@H]2[C@@H](C)C(=O)O[C@@H]3O[C@@]4(C)CC[C@@H]1[C@]32OO4
[A] 0.92

[Q] Return normalized growth for the following compound: O=C(NCCc1ccncc1)c1ccc(Cl)c(Cl)c1
[A] 0.924

[Q] Return normalized growth for the following compound: Nc1ccc(S(=O)(=O)c2ccc(N)cc2)cc1
[A] 1.02

[Q] Return normalized growth for the following compound: CC(C)(C#N)O[C@@H]1O[C@H](CO)[C@@H](O)[C@H](O)[C@H]1O
[A] 0.997

[Q] Return normalized growth for the following compound: CNC(=O)O/N=C\C(C)(C)SC
[A] 1

[Q] Return normalized growth for the following compound: C/C=C(/C)C(=O)O[C@H]1CC[C@@]2(C)[C@@H]3CC[C@H]4[C@]5(O)C[C@H](O)[C@@]6(O)[C@@H](CN7C[C@@H](C)CC[C@H]7[C@@]6(C)O)[C@]5(O)C[C@@]42O[C@]13O
[A] 1

[Q] Return normalized growth for the following compound: Cc1nc(-c2cccnc2)nc(NCc2ccccc2)c1Cl
[A] 0.89
